Target: UniProt:Q9NYK1
Sequence (Q9NYK1 27-1049): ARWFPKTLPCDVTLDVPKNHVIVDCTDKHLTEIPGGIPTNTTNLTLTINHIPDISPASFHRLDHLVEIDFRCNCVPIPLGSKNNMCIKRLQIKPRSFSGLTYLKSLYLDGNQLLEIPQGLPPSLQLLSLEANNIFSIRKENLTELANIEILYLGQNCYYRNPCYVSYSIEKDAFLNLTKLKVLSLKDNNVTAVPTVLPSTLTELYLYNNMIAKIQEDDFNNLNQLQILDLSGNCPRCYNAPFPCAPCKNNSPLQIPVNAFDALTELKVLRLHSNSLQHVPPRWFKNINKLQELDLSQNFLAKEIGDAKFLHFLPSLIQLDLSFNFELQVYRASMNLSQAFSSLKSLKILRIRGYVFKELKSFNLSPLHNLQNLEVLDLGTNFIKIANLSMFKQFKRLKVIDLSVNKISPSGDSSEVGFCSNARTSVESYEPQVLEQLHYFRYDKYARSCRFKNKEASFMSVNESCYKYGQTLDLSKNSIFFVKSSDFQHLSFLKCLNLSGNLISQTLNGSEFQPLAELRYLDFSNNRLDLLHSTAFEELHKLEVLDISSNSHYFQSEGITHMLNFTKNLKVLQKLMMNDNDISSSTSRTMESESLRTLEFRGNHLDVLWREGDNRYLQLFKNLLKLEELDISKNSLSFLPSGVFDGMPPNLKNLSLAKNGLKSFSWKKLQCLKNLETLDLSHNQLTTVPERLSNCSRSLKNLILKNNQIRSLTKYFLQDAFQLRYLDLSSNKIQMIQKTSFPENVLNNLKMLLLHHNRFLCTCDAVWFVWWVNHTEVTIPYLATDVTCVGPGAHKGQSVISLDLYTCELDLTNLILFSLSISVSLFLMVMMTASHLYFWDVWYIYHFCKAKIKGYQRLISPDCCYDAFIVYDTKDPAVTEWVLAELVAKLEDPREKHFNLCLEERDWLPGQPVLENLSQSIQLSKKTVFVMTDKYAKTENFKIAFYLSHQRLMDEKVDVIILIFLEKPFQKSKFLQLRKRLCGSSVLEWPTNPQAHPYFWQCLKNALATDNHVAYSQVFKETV
Experiment: TLR7 inhibition reporter assay (HEK-Blue, SEAP)
Conditions: HEK-Blue cells overexpressing human TLR7, gardiquimod 7.5 μM stimulation
In this section we review reported IC50 values for a set of molecules.

# molecule, systemUnderTest, IC50 [nM]
records = [
    ("Cc1cc(-c2[nH]c3ccc(-c4ccc(NC(C)C)nc4)cc3c2C(C)C)cc(C)n1 [Example 248]", "UniProt:Q9NYK1", 20),
    ("COc1ccc(-c2[nH]c3ccc(-c4ccc(N5CCN[C@H](C)C5)cc4)cc3c2C(C)C)cc1OC [Example 383]", "UniProt:Q9NYK1", 136),
    ("Cc1cc(-c2[nH]c3ccc(-c4nnc(C5CCCN(C(=O)CN(C)C)C5)[nH]4)cc3c2C(C)C)ccn1 (stereo not shown) [Example 176]", "UniProt:Q9NYK1", 51),
    ("CNCC(=O)N1CCc2cc(-c3ccc4[nH]c(-c5ccnc(C)c5)c(C(C)C)c4c3)sc2C1 [Example 252]", "UniProt:Q9NYK1", 22),
    ("COc1ccc(-c2[nH]c3ccc(-c4cccc(C(=O)N5CC[C@@H](O)C5)c4)cc3c2CC(F)(F)F)cc1OC [Example 34]", "UniProt:Q9NYK1", 776),
    ("COCCN(CCOC)Cc1nnc(-c2ccc3[nH]c(-c4ccc(OC)c(OC)c4)c(C(C)C)c3c2)o1 [Example 118]", "UniProt:Q9NYK1", 227),
    ("CC(C)c1c(-c2ccnc3[nH]ncc23)[nH]c2ccc(-c3nnc(C(=O)N4CCCN(C)CC4)o3)cc12 [Example 125]", "UniProt:Q9NYK1", 183),
]
